Biological target: T1, recombinant human MASP1 active protease (amino acids 297-699, C-terminal His Tag) (human, UniProt P48740 297-699)
T1 sequence: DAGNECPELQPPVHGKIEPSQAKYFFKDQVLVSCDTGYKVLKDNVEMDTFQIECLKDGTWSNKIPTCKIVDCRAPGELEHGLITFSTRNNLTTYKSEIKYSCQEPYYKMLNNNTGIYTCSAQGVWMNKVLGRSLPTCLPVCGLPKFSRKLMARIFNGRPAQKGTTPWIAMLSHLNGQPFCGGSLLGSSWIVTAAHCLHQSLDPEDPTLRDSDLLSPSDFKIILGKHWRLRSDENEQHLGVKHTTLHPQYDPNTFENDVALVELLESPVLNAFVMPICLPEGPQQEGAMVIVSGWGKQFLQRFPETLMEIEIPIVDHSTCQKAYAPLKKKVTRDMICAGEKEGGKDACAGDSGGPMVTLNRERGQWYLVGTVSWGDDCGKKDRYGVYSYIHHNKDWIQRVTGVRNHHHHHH
Assay: cell-based or functional assay
Numbered stars: 1 amine (or outer) side, 2 acyl side, 3 side chain; on linkers, the order of the positions; unused ones are H or OH. Bridge positions count the residues as written; N and C are the ends. Square brackets hold non-standard residues; d marks the D form. Ends that are not written are not given here. * marks the point of attachment. Phe(2,3-F2) = (2S)-3-(2,3-difluorophenyl)-2-aminopropanoic acid, O=C([C@H](Cc1cccc(F)c1F)N[*:1])[*:2]; Oic = O=C(O)[C@@H]1C[C@@H]2CCCC[C@@H]2N1; Butanoyl(3,3-Me2) = CC(C)(C)CC(=O)*; NMeI = CC[C@H](C)[C@H](NC)C(=O)O; tBuAla = CC(C)(C)C[C@H](N)C(=O)O; Pen = CC(C)(S)[C@H](N)C(=O)O; NMeC = CN[C@@H](CS)C(=O)O; Sar = CNCC(=O)O
human MASP1 IC50 strictly under 30 nM means fulfilled; at 30 nM or over means not fulfilled.

Some entries whose results are on file:
INSERT INTO measurements (binder, label) VALUES
  ('[Sar][NMeI]CSRSLPPICIPD-NH2 (disulfide 3-11; N-terminus assumed; SMILES CC[C@H](C)[C@@H]1NC(=O)[C@@H]2CCCN2C(=O)[C@@H]2CCCN2C(=O)[C@H](CC(C)C)NC(=O)[C@H](CO)NC(=O)[C@H](CCCNC(=N)N)NC(=O)[C@H](CO)NC(=O)[C@@H](NC(=O)[C@H]([C@@H](C)CC)N(C)C(=O)CNC)CSSC[C@@H](C(=O)N[C@H](C(=O)N2CCC[C@H]2C(=O)N[C@@H](CC(=O)O)C(N)=O)[C@@H](C)CC)NC1=O) [Example 340: ((N-Me)G)-((N-Me)I)-C+SRSLPPIC+IPD-NH2]', 'fulfilled'),
  ('AICSRS[(2S)‑2‑Amino‑4,4,4‑trifluorobutanoic acid]PPI[NMeC]IPD-NH2 (disulfide 3-11) [Example 337: AIC+SRS-((2S)-2-Amino-4,4,4-trifluorobutanoic acid)-PPI-((N-Me)C)+IPD-NH2]', 'fulfilled'),
  ('ICSRSLP[Oic]I[Pen]IPQ-OH (disulfide 2-10; N-terminus assumed; SMILES CC[C@H](C)[C@H](N)C(=O)N[C@H]1CSSC(C)(C)[C@@H](C(=O)N[C@H](C(=O)N2CCC[C@H]2C(=O)N[C@@H](CCC(N)=O)C(=O)O)[C@@H](C)CC)NC(=O)[C@H]([C@@H](C)CC)NC(=O)[C@@H]2C[C@@H]3CCCC[C@@H]3N2C(=O)[C@@H]2CCCN2C(=O)[C@H](CC(C)C)NC(=O)[C@H](CO)NC(=O)[C@H](CCCNC(=N)N)NC(=O)[C@H](CO)NC1=O) [Example 388: IC+SRSLP-(Oic)-I-(Pen)+IPQ-OH]', 'not fulfilled'),
  ('{Butanoyl(3,3-Me2)}-ICSRS[tBuAla]PPI[Pen]IP-NH2 (disulfide 2-10; SMILES CC[C@H](C)[C@H](NC(=O)CC(C)(C)C)C(=O)N[C@H]1CSSC(C)(C)[C@@H](C(=O)N[C@H](C(=O)N2CCC[C@H]2C(N)=O)[C@@H](C)CC)NC(=O)[C@H]([C@@H](C)CC)NC(=O)[C@@H]2CCCN2C(=O)[C@@H]2CCCN2C(=O)[C@H](CC(C)(C)C)NC(=O)[C@H](CO)NC(=O)[C@H](CCCNC(=N)N)NC(=O)[C@H](CO)NC1=O) [Example 359: (tert-Butylacetic acid)-IC+SRS-((tBu)A)-PPI-(Pen)+IP-NH2]', 'not fulfilled');

Enquiry: Dear reviewer, please state whether [Sar]ICSRS[Phe(2,3-F2)]P[Oic]I[Pen]IP-NH2 (disulfide 3-11; N-terminus assumed; SMILES CC[C@H](C)[C@H](NC(=O)CNC)C(=O)N[C@H]1CSSC(C)(C)[C@@H](C(=O)N[C@H](C(=O)N2CCC[C@H]2C(N)=O)[C@@H](C)CC)NC(=O)[C@H]([C@@H](C)CC)NC(=O)[C@@H]2C[C@@H]3CCCC[C@@H]3N2C(=O)[C@@H]2CCCN2C(=O)[C@H](Cc2cccc(F)c2F)NC(=O)[C@H](CO)NC(=O)[C@H](CCCNC(=N)N)NC(=O)[C@H](CO)NC1=O) has human MASP1 IC50 strictly beneath 30 nM.
Return: not fulfilled
